Target: NaV1.5 (Homo sapiens (Human), UniProt Q14524)
Sequence (Q14524 other isoform, or with tags, fused parts or gaps): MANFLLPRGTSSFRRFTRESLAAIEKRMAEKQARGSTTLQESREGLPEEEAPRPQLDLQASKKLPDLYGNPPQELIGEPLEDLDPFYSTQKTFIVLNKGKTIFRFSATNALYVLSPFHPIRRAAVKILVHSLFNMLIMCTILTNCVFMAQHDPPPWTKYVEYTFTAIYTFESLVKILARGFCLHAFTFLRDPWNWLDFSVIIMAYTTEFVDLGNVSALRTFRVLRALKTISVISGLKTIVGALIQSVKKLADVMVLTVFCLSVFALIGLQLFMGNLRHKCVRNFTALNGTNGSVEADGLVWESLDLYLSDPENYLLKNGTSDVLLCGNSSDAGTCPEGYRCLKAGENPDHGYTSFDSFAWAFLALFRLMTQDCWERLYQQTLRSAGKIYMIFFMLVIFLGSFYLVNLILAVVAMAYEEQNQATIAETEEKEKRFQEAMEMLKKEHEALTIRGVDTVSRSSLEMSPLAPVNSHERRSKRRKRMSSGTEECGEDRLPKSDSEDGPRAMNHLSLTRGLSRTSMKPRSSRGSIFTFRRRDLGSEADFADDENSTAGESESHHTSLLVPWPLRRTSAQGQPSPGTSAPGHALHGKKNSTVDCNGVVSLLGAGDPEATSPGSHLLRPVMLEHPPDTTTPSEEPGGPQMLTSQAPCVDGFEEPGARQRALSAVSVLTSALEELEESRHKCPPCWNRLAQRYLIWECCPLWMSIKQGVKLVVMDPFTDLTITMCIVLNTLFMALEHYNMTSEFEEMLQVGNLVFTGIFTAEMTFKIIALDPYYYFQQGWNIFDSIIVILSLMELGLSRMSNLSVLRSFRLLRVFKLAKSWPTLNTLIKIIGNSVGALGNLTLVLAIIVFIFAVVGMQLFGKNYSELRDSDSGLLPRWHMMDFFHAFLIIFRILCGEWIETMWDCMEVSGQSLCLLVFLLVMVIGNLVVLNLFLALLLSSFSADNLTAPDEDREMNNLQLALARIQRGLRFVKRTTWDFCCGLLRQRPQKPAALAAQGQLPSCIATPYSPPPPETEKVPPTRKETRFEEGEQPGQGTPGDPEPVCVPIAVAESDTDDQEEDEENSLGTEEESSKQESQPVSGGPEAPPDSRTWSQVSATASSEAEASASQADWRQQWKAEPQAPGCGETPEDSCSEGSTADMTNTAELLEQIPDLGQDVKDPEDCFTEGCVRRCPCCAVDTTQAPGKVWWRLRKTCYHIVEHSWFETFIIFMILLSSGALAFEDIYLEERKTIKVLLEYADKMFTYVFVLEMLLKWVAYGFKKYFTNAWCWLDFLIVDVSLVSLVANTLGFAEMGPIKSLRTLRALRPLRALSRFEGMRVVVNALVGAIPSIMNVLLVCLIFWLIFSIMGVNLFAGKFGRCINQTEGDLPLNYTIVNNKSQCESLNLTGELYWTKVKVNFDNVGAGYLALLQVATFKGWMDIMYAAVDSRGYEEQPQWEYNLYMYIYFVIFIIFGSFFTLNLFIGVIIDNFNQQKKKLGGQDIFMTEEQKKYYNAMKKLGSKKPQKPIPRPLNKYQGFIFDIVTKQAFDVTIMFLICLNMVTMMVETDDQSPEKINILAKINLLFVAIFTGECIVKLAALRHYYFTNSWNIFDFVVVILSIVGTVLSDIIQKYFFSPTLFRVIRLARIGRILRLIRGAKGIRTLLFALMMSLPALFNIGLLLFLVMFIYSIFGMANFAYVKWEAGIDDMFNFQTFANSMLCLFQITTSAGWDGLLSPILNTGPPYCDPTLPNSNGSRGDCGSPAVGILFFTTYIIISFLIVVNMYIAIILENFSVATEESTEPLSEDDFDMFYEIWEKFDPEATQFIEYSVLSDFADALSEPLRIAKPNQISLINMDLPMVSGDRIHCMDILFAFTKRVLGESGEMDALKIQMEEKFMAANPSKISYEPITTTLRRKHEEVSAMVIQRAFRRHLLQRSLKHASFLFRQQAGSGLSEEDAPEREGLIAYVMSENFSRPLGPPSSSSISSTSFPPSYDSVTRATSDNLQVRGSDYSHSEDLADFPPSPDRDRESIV
Test: cell-based
property-name: IC50 (µM)
Numbers only, in µM.

Lookup: Fill in the recorded IC50 for this compound, with NaV1.5 (Homo sapiens (Human), UniProt Q14524) as test system: C[C@@H]1[C@H](N(C)c2cc(F)c(S(=O)(=O)Nc3cscn3)cc2Cl)CCN1Cc1ccccc1 (racemic)
Found: 7.35

---

Molecular target: NaV1.5 (Homo sapiens (Human), UniProt Q14524)
Test: Electrophysiological Assay (EP, patch voltage clamp), NaV1.5
Assay type: cell-based
Conditions: HEK-293 cells, whole-cell patch clamp, inactivated state; arithmetic mean
property-name: IC50

Lookup: Any idea what its IC50 is? The molecule is Cc1c(N(C)[C@H]2CCN(Cc3ccccc3)C2)cc(F)c(S(=O)(=O)Nc2cscn2)c1F [Example 103, 2,2,2-trifluoroacetate]
Found: > 30 µM

FYI, the data here is from patent US11299490B2.
